subject-of-test: T1, Human v6-peptide (human, N-terminal biotin)
T1 construct: Bachem #4108947, 43 amino acids, synthetic; also called Hm v6-peptide; hm v6-peptide
T1 peptide: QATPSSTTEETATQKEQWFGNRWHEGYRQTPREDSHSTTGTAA
protocol-details: SPR SCK, antibody immobilised, peptide injected
Give measured koff for each item. Keep answers brief.
Unit s⁻¹ implied. Number only.

Query :: Looking for the measured koff of AL-MN114-132 IgG1 LALA IAHA (antibody, V domains shown, Human IgG1 LALA IAHA, kappa) VH: EVQLLESGGGLVQPGGSLRLSCAASGFTFSSYAMSWVRQAPGKGLEWVSAISGGGSSTYYADSVKGRFTISRDNSKNTLYLQMNSLRAEDTAVYYCARHYYSDSDYRSSAAMDYWGQGTLVTVSS VL: DIQMTQSPSSLSASVGDRVTITCRASQSISSYLNWYQQKPGKAPKLLIYAASSLQSGVPSRFSGSGSGTDFTLTISSLQPEDFATYYCQQDLYLLTFGQGTKLEIK , can you help?
Result :: 0.016

Query :: Follow-up entry: AL-MN114-71 IgG1 LALA IAHA (antibody, V domains shown, Human IgG1 LALA IAHA, kappa) VH: EVQLLESGGGLVQPGGSLRLSCAASGFSFRSFAMSWVRQAPGKGLEWVSAISGGGSSTFYADSVKGRFTISRDNSKNTLYLQMNSLRAEDTAVYYCARHYYSDSDYRSSAAMDYWGQGTLVTVSS VL: DIQMTQSPSSLSASVGDRVTITCRASQSISSYLNWYQQKPGKAPKLLIYAASTLQSGVPSRFSGSGSGTDFTLTISSLQPEDFATYYCQQDLYLLTFGQGTKLEIK
Result :: 0.011

Query :: Follow-up entry: AL-MN114-444 IgG1 LALA IAHA (antibody, V domains shown, Human IgG1 LALA IAHA, kappa) VH: EVQLLESGGGLVQPGGSLRLSCAASGFTFRSFAMSWVRQAPGKGLEWVSAISGGGSSTFYADSVKGRFTISRDNSKNTLYLQMNSLRAEDTAVYYCARHYYSDSDYRSSAAMDYWGQGTLVTVSS VL: DIQMTQSPSSLSASVGDRVTITCRASQSIGSYLNWYQQKPGKAPKLLIYSASSLQSGVPSRFSGSGSGTDFTLTISSLQPEDFATYYCQQDLYLLTFGQGTKLEIK
Result :: 0.0083
